- ASSAY SYSTEM: human NTCP (Homo sapiens, UniProt Q14973)
- Sequence (Q14973 whole entry): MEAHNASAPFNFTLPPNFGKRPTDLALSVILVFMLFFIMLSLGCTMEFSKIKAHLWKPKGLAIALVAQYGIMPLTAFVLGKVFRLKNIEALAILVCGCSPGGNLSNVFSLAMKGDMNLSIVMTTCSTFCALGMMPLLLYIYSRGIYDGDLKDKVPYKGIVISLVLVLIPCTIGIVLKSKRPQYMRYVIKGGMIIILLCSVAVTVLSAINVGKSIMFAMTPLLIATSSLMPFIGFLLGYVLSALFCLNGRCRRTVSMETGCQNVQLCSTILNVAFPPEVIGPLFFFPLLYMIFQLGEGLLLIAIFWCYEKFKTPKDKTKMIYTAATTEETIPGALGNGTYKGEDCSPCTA
- EXPERIMENTAL DETAILS: Screening taurocholate uptake assay (96-well, [14C]taurocholate, 10 µM drug)
- MEASUREMENT CONTEXT: combined ranking from functional and binding assay B-scores
Structures can show the parent of a compound that is named as a salt.
Could you please report measured Ranking score for the items listed next?
Respond numerically, and do not add a unit to the figure.

Measured Ranking score, `CC(=O)OCC1=C(C(=O)O)N2C(=O)[C@@H](N)[C@H]2SC1` : 845.501

Measured Ranking score, COc1cc2c(cc1OC)C(C)NCC2.Cl (centres unmarked) : 1023.83

Measured Ranking score, CC(C(=O)O)c1ccc(N2Cc3ccccc3C2=O)cc1 (centres unmarked) : 897.998

Measured Ranking score, `Cn1c(=O)c2c(ncn2CC2OCCO2)n(C)c1=O` : 1049.35

Measured Ranking score, `NCCCCCC(=O)O` : 1108.16

Measured Ranking score, Cl.O=C(OCC(O)CO)c1ccccc1Nc1ccnc2cc(Cl)ccc12 (centres unmarked) [Glafenine hydrochloride] : 1037.91

Measured Ranking score, `Cc1cc(C2CCCCC2)n(O)c(=O)c1.NCCO` : 1078.72

Measured Ranking score, CC(C)N(CCC(C(N)=O)(c1ccccc1)c1ccccn1)C(C)C (centres unmarked) [Disopyramide] : 925.407

Measured Ranking score, CCN1CCC[C@H]1CNC(=O)c1c(O)c(Cl)cc(Cl)c1OC [Raclopride] : 891.19

Measured Ranking score, CN(C)CCCSC(=N)N.Cl.Cl [Dimaprit dihydrochloride] : 1022.56

Measured Ranking score, `C[C@@]1(O)CCOC(=O)C1` : 868.822

Measured Ranking score, NS(=O)(=O)c1cc2c(cc1Cl)N=CNS2(=O)=O [Chlorothiazide] : 967.179

Measured Ranking score, `O=C1[C@H]2CCCC[C@H]2C(=O)N1CCCCN1CCN(c2nsc3ccccc23)CC1` : 917.333

Measured Ranking score, Cc1onc(-c2c(F)cccc2Cl)c1C(=O)N[C@@H]1C(=O)N2[C@@H]1SC(C)(C)[C@@H]2C(=O)O [Flucloxacillin sodium] : 1024.7

Measured Ranking score, COc1ccccc1N1CCN(CCCNc2cc(=O)n(C)c(=O)n2C)CC1 [Urapidil hydrochloride] : 1027.42

Measured Ranking score, CCSc1ccc2c(c1)N(CCCN1CCN(C)CC1)c1ccccc1S2.O=C(O)CC(O)C(=O)O.O=C(O)CC(O)C(=O)O [Thiethylperazine dimalate] : 1093.79

Measured Ranking score, CC(C(=O)O)c1ccc(C(=O)c2ccccc2)s1 (centres unmarked) : 1082.46

Measured Ranking score, CN1CCCN(C(c2ccccc2)c2ccc(Cl)cc2)CC1.Cl.Cl (centres unmarked) [Homochlorcyclizine dihydrochloride] : 1053.65

Measured Ranking score, `Cc1cc2c(s1)Nc1ccccc1N=C2N1CCN(C)CC1` : 1041.63

Measured Ranking score, CN1CCc2c(c3ccccc3n2Cc2ccccc2)C1.O=S(=O)(O)c1cccc2c(S(=O)(=O)O)cccc12 [Mebhydroline 1,5-naphtalenedisulfonate] : 893.031

Measured Ranking score, `O=c1[nH]c(=O)n([C@H]2C[C@H](O)[C@@H](CO)O2)cc1C(F)(F)F` : 994.589

Measured Ranking score, `COc1ccc(NS(=O)(=O)c2ccc(N)cc2)nn1` : 989.975

Measured Ranking score, `Nc1nc(O)c2[nH]nnc2n1` : 1120.13

Measured Ranking score, O=C(O)c1cc(=O)c2c(OCC(O)COc3cccc4oc(C(=O)O)cc(=O)c34)cccc2o1 [Cromolyn disodium salt] : 903.754

Measured Ranking score, CC(C)NCC(O)c1ccc(NS(C)(=O)=O)cc1 (centres unmarked) [Sotalol hydrochloride] : 866.77

Measured Ranking score, `O=C1NCCN1CCN1CCC(c2cn(-c3ccc(F)cc3)c3ccc(Cl)cc23)CC1` : 1028.08

Measured Ranking score, N=C(N)N1CCc2ccccc2C1 [Debrisoquin sulfate] : 932.772

Measured Ranking score, CC(C)(S)C(N)C(=O)O (racemic) : 845.872

Measured Ranking score, CO[C@@H]1[C@@H](OC(N)=O)[C@@H](O)[C@H](Oc2ccc3c([O-])c(NC(=O)c4ccc(O)c(CC=C(C)C)c4)c(=O)oc3c2C)OC1(C)C.[Na+] [Novobiocin sodium salt] : 942.881

Measured Ranking score, Cl.Nc1c(Br)cc(Br)cc1CNC1CCC(O)CC1 (centres unmarked) [Ambroxol hydrochloride] : 860.528

Measured Ranking score, NC(=O)c1cccnc1 [Nicotinamide] : 911.172

Measured Ranking score, CC(Cc1ccccc1)NCCC(c1ccccc1)c1ccccc1 (centres unmarked) [Prenylamine lactate] : 975.256

Measured Ranking score, NS(=O)(=O)c1cc2c(cc1C(F)(F)F)NCNS2(=O)=O [Hydroflumethiazide] : 856.507

Measured Ranking score, CCN(CC)CCOCCOC(=O)C1(c2ccccc2)CCCC1 [Carbetapentane citrate] : 943.43

Measured Ranking score, CN1CCCCC1CCN1c2ccccc2Sc2ccc([S+](C)[O-])cc21 (centres unmarked) [Mesoridazine besylate] : 892.285
